test system: NCI-H226 lung; experiment: NCI tumour cell line growth inhibition, 48 h
For each record, write down the corresponding TGI.

input: # input compound: CCN1C(C)=NC2C(=O)c3ccccc3C(=O)C21 (centres undefined) ; wanted: its TGI
output: > 100 µM

input: Give its TGI value. Item: `COC(=O)[C@H](CCSC)NC(=O)c1ccc(CNC(=O)/C=C/c2cccc(Oc3ccccc3)c2)cc1`
output: > 62.9 µM

input: Requested field: TGI. Item: `O=C(O)C(=O)Cc1ccc2c(c1)OCO2`
output: > 100 µM

input: Quick check: TGI of `C#CCCCC(=C)C[C@H](OCc1ccccc1)[C@H]1OC(=O)[C@@H]1C` ?
output: > 100 µM
